Data provenance is PubChem BioAssay (NCI).

# System: HOP-92 NSCLC
# ASSAY DETAILS: NCI tumour cell line growth inhibition, 48 h; in the data active means GI50 below about 0.43 µM; inactive means the rest
Outcome field: choose from class 1 for active, class 0 for inactive

{"MOLECULE": "COc1cc2c3c(n(CCCNC(C)(C)CO)c(=O)c2cc1OC)-c1cc2c(cc1C3=O)OCO2", "LABEL CLASS": "class 0"}

Check the results log: what was the call for `NNC(=S)N/N=C/c1ccccn1` ? class 0

Check the results log: what was the call for `COc1ccc(-c2nc(Nc3ccc(F)cc3)nc(Nc3ccc4c(c3)nc(C)n4Cc3ccccc3)n2)cc1` ? class 0

Check the results log: what was the call for `O=C(/C=C/c1cccnc1)c1ccccc1` ? class 0

Check the results log: what was the call for `CO[C@@H]1[C@H](N(C)C(=O)c2ccccc2)C[C@@H]2O[C@]1(C)n1c3ccccc3c3c4c(c5c6ccccc6n2c5c31)C(=O)NC4=O` ? class 1

Check the results log: what was the call for `CCOC(=O)Cc1csc(Nc2nc(O)c(C3=c4ccccc4=NC3=O)s2)n1` ? class 0

Check the results log: what was the call for `Clc1ccc(Nc2ncnc3ccccc23)cc1` ? class 0

Check the results log: what was the call for `COc1cc2cc(Oc3ccc(NC(=O)Nc4ccc(F)c(C(F)(F)F)c4)cc3)c(C)nc2cc1OCCN1CCOCC1` ? class 0

Check the results log: what was the call for COc1ncnn2ccc(-c3cnc4nc(C)n(Cc5nnc(C(C)F)o5)c4c3)c12 (configuration not stated) ? class 1

Check the results log: what was the call for `CCN1C2=C(SC(=S)C1=C1SC(C(=O)c3ccccc3)=C(C(=O)c3ccccc3)S1)SC(=Nc1ccccc1)C2=O` ? class 0

Check the results log: what was the call for COc1ccc2c(c1)OC(N)=C(C#N)C2c1ccc(F)c(F)c1 (configuration not stated) ? class 0

Check the results log: what was the call for `CN1CCN(C(=O)OCc2nc3c(N4CCOCC4)nc(-c4ccccc4)nc3n2C)CC1` ? class 0
